These entries and their values trace back to PubChem BioAssay (NCI).

- Test system: SF-539 CNS
- testMethodNotes: NCI-60 one-dose screen, 48 h (100 = growth as untreated, 0 = no growth, -100 = all killed)
- experimentalParameters: 10 µM
Compounds without any hit were thinned out: in the full panel of roughly 83,000, 20% have a hit.
assayMetric: growth (%)
One number for each entry, in %.

[[record]]
compound = "CN(C)CCCN1c2ccccc2CCc2ccc(Cl)cc21"
reportedmeasurement = 83.5

[[record]]
compound = "Cc1ccc(/C=C/C(=O)C(=O)/C=C/c2ccc(C)cc2)cc1"
reportedmeasurement = 96.2

[[record]]
compound = "Brc1ccc2c(c1)-c1ccccc1C1=NCCN12"
reportedmeasurement = -1.45

[[record]]
compound = "CCN1C(=O)CC(SC2CC(=O)N(CC)C2=O)C1=O (stereo not given)"
reportedmeasurement = 100


Hi there! I need growth for each item below, if you can.
1. COc1ccc(-c2nn(-c3cccc(Cl)c3)cc2-c2cc(-c3ccccc3)[nH]c(=O)c2C#N)cc1
2. Cc1noc(C)c1CSc1ccccc1C(=O)N1CCN(c2cccc(C(F)(F)F)c2)CC1
3. C=C/C(C)=C/C[C@]1(C)[C@H](C)[C@@H](OC(=O)CCC)[C@H](O)[C@@]23C(=C[C@H](OC)C[C@@H]12)[C@@H](OC(=O)CCC)O[C@H]3OC(C)=O
4. O=[N+]([O-])c1ccc2ncccc2c1Cl
5. O=C1c2ccccc2C(=O)c2c1ccc(C(Br)Br)c2Cl
6. O=C(CCCCC(=O)Oc1c(Cl)cc(Cl)cc1[N+](=O)[O-])Oc1c(Cl)cc(Cl)cc1[N+](=O)[O-]

-45.9
87.4
-74.4
12.9
69.9
100

---

- Test system: EKVX NSCLC
- testMethodNotes: NCI-60 one-dose screen, 48 h (100 = growth as untreated, 0 = no growth, -100 = all killed)
- experimentalParameters: 10 µM
The panel holds about 83,000 compounds, 20% with a hit somewhere; the sample as a whole holds those more often.
assayMetric: growth (%)
Answers are plain numbers, in %.

Hi there! I need growth for each item below, if you can.
1. Nc1cc(-c2ccncc2)c[nH]c1=O
2. C=CCn1c(SCC(=O)Nc2ccc(C(=O)/C=C/c3cc(OC)c(OC)c(OC)c3)cc2)nnc1-c1cc(-c2ccc(Cl)cc2)nc2ccccc12
3. COCCn1cc(-c2nc(-c3cccnc3)cs2)c2cc(F)ccc21
4. Cc1ccc(C)c(COc2cc(NC(=O)c3ccc4c(c3)OCO4)ccc2N(C)S(C)(=O)=O)c1
5. CN1CCN(CCC(=O)Nc2cccc(-n3cc(-c4ccncc4)c(-c4ccc(Cl)c(O)c4)n3)c2)CC1
6. CCOC(=O)C1=CSC2=NC3=C(CCC/C3=C\c3ccc(Cl)cc3)C(c3ccc(Cl)cc3)N12 (stereo not drawn)
7. CC(=O)[C@H]1CC[C@]2(C)[C@@H]1CC[C@@H]1[C@@]3(C)CC(CCC#N)(CCC#N)C(=O)C(C)(C)[C@@H]3CC[C@]12C
8. CN(C)CCOc1cccc(NC2=C(Cl)C(=O)C(Nc3cccc(OCCN(C)C)c3)=C(Cl)C2=O)c1

1. 84.1
2. 86.4
3. 90.8
4. 29.6
5. 74.1
6. 91.6
7. 91.8
8. -92.3

Hi there! I need growth for each item below, if you can.
1. CCOS(=O)(=O)c1c(C(C)C)cc(C(C)C)cc1C(C)C
2. CC(C)C1=C(O)C2=C(C(=O)C1=O)[C@@]1(C)CCCC(C)(C)[C@@H]1CC2
3. Cc1cc(SCc2ccccc2)nc(N)n1
4. O=C1OC(C(Cl)(Cl)Cl)OC1C(Cl)(Cl)Cl (stereo not drawn)
5. CCC(=O)OC1CCC2C3CCC(=O)OC3C(C)(CCC(=O)O)CC12C (stereo not drawn)
6. O=C1c2c(c(=O)[nH]c3ccccc23)CCN1Cc1ccccc1
7. N#Cc1c(N)nc(-c2cc(F)cc(C(F)(F)F)c2)nc1-c1ccccc1F

1. 97.8
2. 67.1
3. 96.7
4. 106
5. 8.81
6. 92.4
7. 38.6

Hi there! I need growth for each item below, if you can.
1. CN(C)c1nc(N)c2nccnc2n1
2. CCN(CC)CCOC(=O)c1cc(OCc2ccccc2)c(OCc2ccccc2)c(OCc2ccccc2)c1
3. CCN1CC(CCN2CCOCC2)C(C(c2ccccc2)c2ccccc2)C1=O (stereo not drawn)
4. CC(C)(C)OC(=O)N1CCc2c(sc3ncnc(N/N=C/c4ccc(Br)cc4)c23)C1
5. Clc1ccc(Cc2ccncc2)cc1
6. O=C(Nc1nc(-c2ccccc2)nc2c1sc(=S)n2-c1ccccc1)C(F)(F)F
7. O=C(N/N=C/c1ccc(Cl)cc1)c1ccccc1Nc1cccc(C(F)(F)F)c1

1: 98.3; 2: 47.7; 3: 97.8; 4: 52; 5: 101; 6: 97.2; 7: 66.6
